# Tested on: Mycobacterium tuberculosis Erdman (autoluminescent)
# experimental details: AUC25, normalised area under dose response up to IC25 (three-drug combination) (fraction (0-1)); higher = more potent at low dose
# run parameters: in vitro model: cholesterol-high 0.2 mM; time point: constant (~7 days, model-specific)
result type: AUC25
# answer = number (no unit)

Known results for molecules:
[[record]]
molecule = "NNC(=O)c1ccncc1 [isoniazid] + CC(=O)NC[C@H]1CN(c2ccc(N3CCOCC3)c(F)c2)C(=O)O1 [linezolid] + CO[C@H]1/C=C/O[C@@]2(C)Oc3c(C)c(O)c4c(O)c(c(/C=N/N5CCN(C6CCCC6)CC5)c(O)c4c3C2=O)NC(=O)/C(C)=C\\C=C\\[C@H](C)[C@H](O)[C@@H](C)[C@@H](O)[C@@H](C)[C@H](OC(C)=O)[C@@H]1C [rifapentine]"
target_or_system = "Mycobacterium tuberculosis Erdman (autoluminescent)"
experimental_result = 0.0853

[[record]]
molecule = "NNC(=O)c1ccncc1 [isoniazid] + CC(=O)NC[C@H]1CN(c2ccc(N3CCOCC3)c(F)c2)C(=O)O1 [linezolid] + CO[C@H]1/C=C/O[C@@]2(C)Oc3c(C)c(O)c4c(O)c(c(/C=N/N5CCN(C)CC5)c(O)c4c3C2=O)NC(=O)/C(C)=C\\C=C\\[C@H](C)[C@H](O)[C@@H](C)[C@@H](O)[C@@H](C)[C@H](OC(C)=O)[C@@H]1C [rifampicin]"
target_or_system = "Mycobacterium tuberculosis Erdman (autoluminescent)"
experimental_result = 0.11


Then this molecule:
Look up AUC25 for this molecule: CC(=O)NC[C@H]1CN(c2ccc(N3CCOCC3)c(F)c2)C(=O)O1 [linezolid] + COc1c(N2C[C@@H]3CCCN[C@@H]3C2)c(F)cc2c(=O)c(C(=O)O)cn(C3CC3)c12 [moxifloxacin] + CO[C@H]1/C=C/O[C@@]2(C)Oc3c(C)c(O)c4c(O)c(c(/C=N/N5CCN(C6CCCC6)CC5)c(O)c4c3C2=O)NC(=O)/C(C)=C\C=C\[C@H](C)[C@H](O)[C@@H](C)[C@@H](O)[C@@H](C)[C@H](OC(C)=O)[C@@H]1C [rifapentine]
0.11

----------
# Test system: Mycobacterium tuberculosis Erdman (autoluminescent)
# experimental details: Einf, fitted maximum growth inhibition of three-drug combination (fraction); higher = stronger maximal inhibition
# run parameters: in vitro model: butyrate; time point: terminal (~4-5 doublings, model-specific)
result type: Einf
Write the number on its own, no unit after it.

[[record]]
molecule = "CC(C)/N=c1\\cc2n(-c3ccc(Cl)cc3)c3ccccc3nc-2cc1Nc1ccc(Cl)cc1 [clofazimine] + NNC(=O)c1ccncc1 [isoniazid] + COc1c(N2C[C@@H]3CCCN[C@@H]3C2)c(F)cc2c(=O)c(C(=O)O)cn(C3CC3)c12 [moxifloxacin]"
result_type = "Einf"
experimental_result = 0.981


Could you now look at the following molecule, please?
Tell me reported Einf for COc1nc2ccc(Br)cc2cc1[C@@H](c1ccccc1)[C@@](O)(CCN(C)C)c1cccc2ccccc12 [bedaquiline] + CC(C)/N=c1\cc2n(-c3ccc(Cl)cc3)c3ccccc3nc-2cc1Nc1ccc(Cl)cc1 [clofazimine] + NNC(=O)c1ccncc1 [isoniazid] , tested with Mycobacterium tuberculosis Erdman (autoluminescent).
0.979

----------
# Tested on: Mycobacterium tuberculosis Erdman (autoluminescent)
# experimental details: Einf, fitted maximum growth inhibition of combination (fraction); higher = stronger maximal inhibition
# run parameters: in vitro model: cholesterol-high 0.2 mM; time point: constant (~7 days, model-specific)
The entries below are paired with their reported Einf.
# respond with the number and nothing more

Examples with answers:
[[record]]
compound = "CC(C)/N=c1\\cc2n(-c3ccc(Cl)cc3)c3ccccc3nc-2cc1Nc1ccc(Cl)cc1 [clofazimine] + NNC(=O)c1ccncc1 [isoniazid]"
experimental_result = 0.93

[[record]]
compound = "COc1nc2ccc(Br)cc2cc1[C@@H](c1ccccc1)[C@@](O)(CCN(C)C)c1cccc2ccccc12 [bedaquiline] + CC(=O)NC[C@H]1CN(c2ccc(N3CCOCC3)c(F)c2)C(=O)O1 [linezolid]"
experimental_result = 0.99


Fill blank: measured Einf of the compound COc1nc2ccc(Br)cc2cc1[C@@H](c1ccccc1)[C@@](O)(CCN(C)C)c1cccc2ccccc12 [bedaquiline] + NNC(=O)c1ccncc1 [isoniazid] is ____.
0.964

What do you get for CC(=O)NC[C@H]1CN(c2ccc(N3CCOCC3)c(F)c2)C(=O)O1 [linezolid] + NC(=O)c1cnccn1 [pyrazinamide] ?
0.957

Item: COc1nc2ccc(Br)cc2cc1[C@@H](c1ccccc1)[C@@](O)(CCN(C)C)c1cccc2ccccc12 [bedaquiline] + O=[N+]([O-])c1cn2c(n1)OC[C@@H](OCc1ccc(OC(F)(F)F)cc1)C2 [pretomanid]
0.883

Numbers sourced from the supplement of paper PMC8617591.
